Here's a batch of compounds along with measured pIC50 for Histone deacetylase 1 (Homo sapiens).
pIC50: −log10 of the molar value.
observable: pIC50

O=C(/C=C/c1ccc2c(c1)cc(C(=O)c1ccccc1)n2S(=O)(=O)c1ccccc1)NO 6.70

P: O=C(/C=C/c1ccc2[nH]c(C(=O)c3ccccc3)cc2c1)NO
Q: O=C(/C=C/c1ccc(C(=O)c2cc3ccccc3[nH]2)cc1)NO
[in] Between the entries labelled P and Q , which has a larger pIC50 value on record? Identify your pick by its label.
[out] P
(P: 6.60, Q: 6.39)

====

- Tested on: CAL-27
- method: Cytotoxicity against human Cal27 cells
- Format: functional, cell-based
observable: pIC50
Conceptually, pIC50 converts a concentration in mol/L into minus its log10.

O=C(/C=C/c1cccc(C(=O)c2cc3ccccc3[nH]2)c1)NO 6.12

Turning to the following molecule.
[in] Record request: pIC50 value, item `O=C(/C=C/c1cccc(C(=O)c2cc3ccccc3o2)c1)NO`
[out] 6.18

====

Below, each entry is listed with its recorded IC50.
- Test system: A-431
- method: Cytotoxicity against human A431 cells
- Assay type: functional, cell-based
Give the quantity in nM, number only.

O=C(/C=C/c1cccc(C(=O)c2cc3ccccc3o2)c1)NO 590

Turning to the following molecule.
[in] Record request: IC50 value, item `O=C(/C=C/c1cccc(C(=O)c2cc3ccccc3[nH]2)c1)NO`
[out] 600

====

Below, each entry is listed with its recorded IC50.
- method: Cytotoxicity against human proliferating RKOp21 cells
- Format: functional, cell-based
Give the quantity in µM, number only.

O=C(/C=C/c1cccc(C(=O)c2cc3ccccc3o2)c1)NO 0.96

[in] Record request: IC50 value, item `O=C(/C=C/c1cccc(C(=O)c2cc3ccccc3[nH]2)c1)NO`
[out] 1.05

====

- system-tested: Histone deacetylase
- method: Inhibition of HDAC in HeLa cells
- Format: cell-based, Homo sapiens
observable: IC50 (nM)

O=C(/C=C/c1ccc(C(=O)c2cc3ccccc3o2)cc1)NO 450
O=C(/C=C/c1ccc(C(=O)c2cc3ccccc3[nH]2)cc1)NO 310
O=C(/C=C/c1ccc(C(=O)c2cc3ccccc3n2S(=O)(=O)c2ccccc2)cc1)NO 270

I: O=C(/C=C/c1cccc(C(=O)c2cc3ccccc3n2S(=O)(=O)c2ccccc2)c1)NO
II: COc1ccc2[nH]c(C(=O)c3ccc(/C=C/C(=O)NO)cc3)cc2c1
[in] Between the entries labelled I and II , which has a larger IC50 value on record? Identify your pick by its label.
[out] II

====

- system-tested: Histone deacetylase
- method: Inhibition of HDAC in HeLa cells assessed as induction of human histone H3 hyperacetylation
- Type: cell-based
observable: EC50 (µM)

A selection of reference data follows.
O=C(/C=C/c1ccc2c(c1)cc(C(=O)c1ccccc1)n2S(=O)(=O)c1ccccc1)NO 2.67
O=C(/C=C/c1ccc(C(=O)c2cc3ccccc3o2)cc1)NO 1.1
O=C(/C=C/c1ccc(C(=O)c2cc3ccccc3[nH]2)cc1)NO 2.97
COc1ccc2[nH]c(C(=O)c3ccc(/C=C/C(=O)NO)cc3)cc2c1 4.27
COc1cccc(C(=O)c2cc3cc(/C=C/C(=O)NO)ccc3[nH]2)c1 2.57
O=C(/C=C/c1cccc(C(=O)c2cc3ccccc3[nH]2)c1)NO 1.3

a: COc1cccc(C(=O)c2cc3cc(/C=C/C(=O)NO)ccc3o2)c1
b: O=C(/C=C/c1ccc2oc(C(=O)c3ccccc3)cc2c1)NO
c: O=C(/C=C/c1cccc(C(=O)c2cc3ccccc3n2S(=O)(=O)c2ccccc2)c1)NO
d: COc1ccc2c(c1)cc(C(=O)c1ccc(/C=C/C(=O)NO)cc1)n2S(=O)(=O)c1ccccc1
[in] // smallest EC50 at index 0, largest at the end Output spec: labels arranged per the requested ranking.
[out] c, b, a, d

====

Here's a batch of compounds along with measured IC50 for Histone deacetylase 1 (Homo sapiens).
observable: IC50 (nM)

A selection of reference data follows.
O=C(/C=C/c1cccc(C(=O)c2cc3ccccc3o2)c1)NO 52
O=C(/C=C/c1cccc(C(=O)c2cc3ccccc3[nH]2)c1)NO 31

1: O=C(/C=C/c1ccc(C(=O)c2cc3ccccc3n2S(=O)(=O)c2ccccc2)cc1)NO
2: O=C(/C=C/c1ccc2oc(C(=O)c3ccccc3)cc2c1)NO
3: O=C(/C=C/c1cccc(C(=O)c2cc3ccccc3n2S(=O)(=O)c2ccccc2)c1)NO
[in] // smallest IC50 at index 0, largest at the end Output spec: labels arranged per the requested ranking.
[out] 3, 1, 2
(3: 89 nM, 1: 690 nM, 2: 1200 nM)

====

- system-tested: Histone deacetylase
- method: Inhibition of HDAC in HeLa cells assessed as induction of human histone H3 hyperacetylation
- Assay type: cell-based
observable: EC50 (µM)

A selection of reference data follows.
O=C(/C=C/c1cccc(C(=O)c2cc3ccccc3o2)c1)NO 0.29
COc1cc(C(=O)c2cc3cc(/C=C/C(=O)NO)ccc3o2)cc(OC)c1OC 7.5
COc1cccc(C(=O)c2cc3cc(/C=C/C(=O)NO)ccc3n2S(=O)(=O)c2ccccc2)c1 2.78

A: O=C(/C=C/c1ccc2[nH]c(C(=O)c3ccccc3)cc2c1)NO
B: O=C(/C=C/c1ccc(C(=O)c2cc3ccccc3n2S(=O)(=O)c2ccccc2)cc1)NO
[in] Between the entries labelled A and B , which has a larger EC50 value on record? Identify your pick by its label.
[out] B
(B: 5.7 µM, A: 3.77 µM)

====

- Test system: HeLa
- method: Cytotoxicity against HeLa cells
- Type: functional, cell-based
- particulars: Homo sapiens
Below, each entry is listed with its recorded IC50.
Give the quantity in µM, number only.

[in] Record request: IC50 value, item `COc1cc(C(=O)c2cc3cc(/C=C/C(=O)NO)ccc3o2)cc(OC)c1OC`
[out] 5.77

[in] Record request: IC50 value, item `O=C(/C=C/c1ccc(C(=O)c2cc3ccccc3n2S(=O)(=O)c2ccccc2)cc1)NO`
[out] 5.42

[in] Record request: IC50 value, item `O=C(/C=C/c1cccc(C(=O)c2cc3ccccc3o2)c1)NO`
[out] 0.68

[in] Record request: IC50 value, item `COc1cccc(C(=O)c2cc3cc(/C=C/C(=O)NO)ccc3n2S(=O)(=O)c2ccccc2)c1`
[out] 3.34

[in] Record request: IC50 value, item `O=C(/C=C/c1ccc2c(c1)cc(C(=O)c1ccccc1)n2S(=O)(=O)c1ccccc1)NO`
[out] 2.88

[in] Record request: IC50 value, item `COc1cccc(C(=O)c2cc3cc(/C=C/C(=O)NO)ccc3[nH]2)c1`
[out] 2.96

[in] Record request: IC50 value, item `COc1ccc2[nH]c(C(=O)c3ccc(/C=C/C(=O)NO)cc3)cc2c1`
[out] 3.44

[in] Record request: IC50 value, item `COc1ccc2c(c1)cc(C(=O)c1ccc(/C=C/C(=O)NO)cc1)n2S(=O)(=O)c1ccccc1`
[out] 5.42

====

- system-tested: Histone deacetylase
- method: Inhibition of HDAC in HeLa cells
- Assay type: cell-based, Homo sapiens
observable: IC50 (nM)

A selection of reference data follows.
COc1ccc2c(c1)cc(C(=O)c1ccc(/C=C/C(=O)NO)cc1)n2S(=O)(=O)c1ccccc1 260
COc1cccc(C(=O)c2cc3cc(/C=C/C(=O)NO)ccc3[nH]2)c1 330
O=C(/C=C/c1ccc2c(c1)cc(C(=O)c1ccccc1)n2S(=O)(=O)c1ccccc1)NO 90
O=C(/C=C/c1ccc2oc(C(=O)c3ccccc3)cc2c1)NO 830
O=C(/C=C/c1cccc(C(=O)c2cc3ccccc3[nH]2)c1)NO 39
O=C(/C=C/c1cccc(C(=O)c2cc3ccccc3o2)c1)NO 57

1: COc1cccc(C(=O)c2cc3cc(/C=C/C(=O)NO)ccc3n2S(=O)(=O)c2ccccc2)c1
2: COc1cccc(C(=O)c2cc3cc(/C=C/C(=O)NO)ccc3o2)c1
3: O=C(/C=C/c1ccc2[nH]c(C(=O)c3ccccc3)cc2c1)NO
4: COc1cc(C(=O)c2cc3cc(/C=C/C(=O)NO)ccc3o2)cc(OC)c1OC
[in] Output the entries ranked by IC50 from maximum down to minimum. Output spec: labels arranged per the requested ranking.
[out] 4, 2, 3, 1
(4: 1000 nM, 2: 650 nM, 3: 340 nM, 1: 120 nM)

====

- system-tested: Histone deacetylase 3 (Homo sapiens)
- Sequence (O15379 whole entry): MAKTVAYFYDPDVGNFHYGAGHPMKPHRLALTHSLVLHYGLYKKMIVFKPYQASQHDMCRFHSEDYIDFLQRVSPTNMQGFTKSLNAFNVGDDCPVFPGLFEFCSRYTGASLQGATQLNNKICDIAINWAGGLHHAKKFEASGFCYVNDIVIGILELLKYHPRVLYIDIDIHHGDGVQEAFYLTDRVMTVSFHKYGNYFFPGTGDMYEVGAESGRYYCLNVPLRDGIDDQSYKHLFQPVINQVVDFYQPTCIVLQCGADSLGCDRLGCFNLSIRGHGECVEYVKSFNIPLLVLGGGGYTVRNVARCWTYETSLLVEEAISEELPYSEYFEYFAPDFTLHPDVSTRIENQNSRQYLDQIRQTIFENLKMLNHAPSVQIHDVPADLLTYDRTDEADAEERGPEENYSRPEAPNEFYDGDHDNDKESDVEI
- method: Inhibition of recombinant HDAC3
observable: IC50 (µM)
Give the quantity in µM, number only.

[in] Record request: IC50 value, item `O=C(/C=C/c1cccc(C(=O)c2cc3ccccc3[nH]2)c1)NO`
[out] 0.05

[in] Record request: IC50 value, item `O=C(/C=C/c1cccc(C(=O)c2cc3ccccc3o2)c1)NO`
[out] 0.079
